Reported apparent KD of MS2 coat protein values are given for each entry in this list.
- System: MS2 coat protein
- assay_remarks: apparent KD of MS2 coat protein; designed switch direction (-1 OFF switch, 1 ON switch): -1; higher = weaker reporter binding
- test_conditions: input ligand: FMN 200 uM
assay_metric: apparent KD of MS2 coat protein

monomer_sequence="GGACCAAGUCUAGGAUAUUUCAAUAGUUGUGUGAGAGAAGGAGAAUAACAUGAGGAUCACCCAUGUACCUCAAGUAGGCCGAUU [Eternabot solution 16] (Eterna round: R96, puzzle: Exclusion NG 1)" observed_value="59.2 nM"
monomer_sequence="GUCAGCUCGUCAGGAUAUAUAUACAUGAGGAUCACCCAUGUAAGAUCAGGCUUCGGCCAAUGUAUAUAGAAGGGACGAGCUGAU [ENG2/11-B2] (Eterna round: R96, puzzle: Exclusion NG 2)" observed_value="721 nM"
monomer_sequence="UAACUUUUAGUAAGGAUAUCGGUCCCAAGGGACAACGAGAAGGUACAUGAGGAUCACCCAUGUGAAAUAAGAAU [Mod of Zala 3 - Jieux - Brourd's Mod of Exclusion 4] (Eterna round: R97, puzzle: Brourd's mod of Exclusion 4)" observed_value="45.4 nM"
monomer_sequence="UAGCAUUGCCUUUGGUAGUGCAUUACAUGAGGAUCACCCAUGUAGGAUAUGGUAGGCUUUGCUUACCAGAAGGACAUGAUAAUU [JL ENG3 1.05] (Eterna round: R96, puzzle: Exclusion NG 3)" observed_value="135 nM"

* * *

- Test system: K4 kissing-loop RNA reporter;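 note: bound reporter read as fluorescence of individual clusters on recovered sequencing chips by microscopy, with normalized cluster intensities fitted with a binding model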
- assay_remarks: apparent KD of K4 kissing-loop reporter; higher = weaker reporter binding
- test_conditions: Eterna round: R107; input ligand: none
Class (by apparent KD of K4 kissing-loop reporter) -- low: < 100 nM; moderate: ≥ 100 nM and < 300 nM; high: ≥ 300 nM

monomer_sequence="AGCAGCAAAUCCUAGUGAUGUUAGGAUAUGUAGGAUAUCGGGAUACCGAGAAGGACAGAAGGAGGAGUGAUGUUCCUAAGCUGCA [FmnAX 24 #DoubleAptamer #DoubleK4 #SwitchBubble]" label_value=moderate
monomer_sequence="CGAGUGAUGUUCGAAGAGUUGUUAAGCGAUACCAGCCAGGAAACUGGCCCUUGGCAGCGUAAUAAAUAAAUAAAUAAAUGAUCAC [Theophylline A Exclusion; Euphoria Solution]" label_value=high
monomer_sequence="UGUCAUUGGUCGGCCGCCACUAAAUAAAAGAGUGAUGUUCUUAAGACGGAUCGAAAGAUCUGUCAUAGGACCGGGACCGAUGACU [TrypBS 21 #SwitchBubble #StaticStem]" label_value=high
monomer_sequence="UCCUAGGUUCGUCGGCGAAAGCCCUGCGAAGGAGCGUGCGAAAGCACAGGUAGGUCGCGCAGUGAUGUUGCACCUAGGUAAUAAA [#SwitchBubble 23 #K4Late]" label_value=high
monomer_sequence="AAUAAGCAUGGAAGGAGCGUAGUCCAGUGAUGUUGGAGUUAAAUACCAGUGAUGUUGGUUAUACAGGUAGGUCGCCAUAAAGCUU [Exclusion Arginine B Gf 6]" label_value=low
monomer_sequence="CCGUGGCCGACGGCCGCCACUCUUACCAUCCAGCGGAGUGAUGUUCCGCCCGAGUGAUGUUCGGAGAGGACCGGGUCUGUUGUAA [Exclusion Tryptophan B GF30]" label_value=moderate
monomer_sequence="GAUGAUCGCGCGGCCGCCACUGGUCAGUGAUGUUGACAUUAAUGCGCCGAGUAGUAACGGCGCAGUAGGACCGGGCGCGAUGUAG [#13 K4 Tryptophan B Same State]" label_value=moderate
monomer_sequence="GGAUAGGACGGAGGAUAUGGUAGUGAUGUUACCAAACUGGUUAAACAUGUCAGAAAACUGGCAUGACCAGAAGGUUGUCCUAUCG [FmnBX 27 G10+U75]" label_value=low
monomer_sequence="UGUAUGUGAUUUGAUACCAGACCAUCUUGUGAGAAGUGAGUGAUGUUUAUUUUGGUUUGGGUCCCUUGGCAGCAAAUCGCAUACU [KL-SSTheoB23]" label_value=high
